Biological target: Cholinesterase (Homo sapiens, UniProt P06276)
Sequence (P06276 whole entry): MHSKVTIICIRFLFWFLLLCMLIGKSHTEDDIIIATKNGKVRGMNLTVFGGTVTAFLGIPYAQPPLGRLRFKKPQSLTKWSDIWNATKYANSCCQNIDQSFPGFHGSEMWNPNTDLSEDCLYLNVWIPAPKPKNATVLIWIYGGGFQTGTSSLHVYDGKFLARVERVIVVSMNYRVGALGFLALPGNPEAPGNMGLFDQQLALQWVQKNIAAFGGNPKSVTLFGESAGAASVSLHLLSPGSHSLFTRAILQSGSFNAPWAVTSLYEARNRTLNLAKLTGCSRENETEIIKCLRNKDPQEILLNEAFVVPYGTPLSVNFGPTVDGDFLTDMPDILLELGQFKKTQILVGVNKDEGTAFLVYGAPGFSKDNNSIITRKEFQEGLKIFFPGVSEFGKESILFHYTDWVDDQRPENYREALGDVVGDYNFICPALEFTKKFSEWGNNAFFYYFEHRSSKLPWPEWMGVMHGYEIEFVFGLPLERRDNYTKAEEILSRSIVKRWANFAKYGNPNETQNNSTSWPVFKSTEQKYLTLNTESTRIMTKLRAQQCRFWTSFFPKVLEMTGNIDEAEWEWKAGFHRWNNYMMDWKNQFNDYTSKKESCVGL
pIC50: −log10 of the molar value.
Label met for high-side pIC50 (at or above 5) and not met for low-side pIC50 (below it).

See these solved cases before continuing.
> print(dat)
                                 smilesdata  classassignment
1  O=C(OCCCCN1CCC(OCc2ccccc2)CC1)c1cccc(F)c1              met
2  O=C(Nc1ccc(F)cc1)OCCCCN1CCC(OCc2ccccc2)CC1              met
3  CC(C)c1ccc(C(=O)OCCCCN2CCC(OC(c3ccccc3)c3ccccc3)CC2)cc1          not met
4  O=C(OCCCCN1CCC(OC(c2ccccc2)c2ccccc2)CC1)c1ccc(Cl)cc1          not met
5  CC(C)(C)c1ccc(C(=O)OCCCCN2CCC(OC(c3ccccc3)c3ccccc3)CC2)cc1          not met

Inquiry: // inclusive: pIC50 at least 5? input: `O=C(Nc1ccc(F)cc1)OCCCCN1CCC(OC(c2ccccc2)c2ccccc2)CC1`
Reply text: not met

Inquiry: // inclusive: pIC50 at least 5? input: `O=C(OCCCCN1CCC(OCc2ccccc2)CC1)c1ccc(F)cc1`
Reply text: met

Inquiry: // inclusive: pIC50 at least 5? input: `O=C(OCCCCN1CCC(OC(c2ccccc2)c2ccccc2)CC1)c1cccc(Cl)c1`
Reply text: not met

Inquiry: // inclusive: pIC50 at least 5? input: `O=C(OCCCCN1CCC(OCc2ccccc2)CC1)c1cccc(Cl)c1`
Reply text: met

Inquiry: // inclusive: pIC50 at least 5? input: `O=C(OCCCCN1CCC(OC(c2ccccc2)c2ccccc2)CC1)c1cccc(F)c1`
Reply text: not met

Inquiry: // inclusive: pIC50 at least 5? input: `O=C(OCCCCN1CCC(OC(c2ccccc2)c2ccccc2)CC1)c1ccc(F)cc1`
Reply text: not met

Inquiry: // inclusive: pIC50 at least 5? input: `O=C(OCCCCN1CCC(OC(c2ccccc2)c2ccccc2)CC1)c1ccccc1`
Reply text: not met

Inquiry: // inclusive: pIC50 at least 5? input: `O=C(Nc1ccc(Cl)cc1)OCCCCN1CCC(OCc2ccccc2)CC1`
Reply text: met

Inquiry: // inclusive: pIC50 at least 5? input: `O=C(OCCCCN1CCC(OCc2ccccc2)CC1)c1ccc([N+](=O)[O-])cc1`
Reply text: met

Inquiry: // inclusive: pIC50 at least 5? input: `O=C(OCCCCN1CCC(OCc2ccccc2)CC1)c1ccc(Cl)cc1`
Reply text: met

Inquiry: // inclusive: pIC50 at least 5? input: `CC(C)(C)c1ccc(C(=O)OCCCCN2CCC(OCc3ccccc3)CC2)cc1`
Reply text: not met

Inquiry: // inclusive: pIC50 at least 5? input: `O=C(OCCCCN1CCC(OCc2ccccc2)CC1)c1ccccc1`
Reply text: met

Inquiry: // inclusive: pIC50 at least 5? input: `O=C(OCCCCN1CCC(OC(c2ccccc2)c2ccccc2)CC1)c1ccc([N+](=O)[O-])cc1`
Reply text: not met
